meta.source: PubChem BioAssay (NCATS)

# Test system: CP269
# METHOD_NOTES: qHTS profiling for inhibitors of Plasmodium falciparum proliferation (AID 504749); also: nearly all actives have a fitted effect of over 60% in size
# EXPERIMENTAL_CONDITIONS: P. falciparum in erythrocytes, SYBR Green DNA, 72 h; series mostly up to 28.7 µM
Inconclusive results are not listed. Active and inactive are the calls of the source. Calls follow the shape of the dose curve; as a rule, active = well fitted inhibition curve with a large enough effect; inconclusive = small, poorly fitted or top-dose-only effect; inactive = flat fitted curve, though single readings scatter.
Possible outcomes: true (1) (active), false (0) (inactive)

COMPOUND | TEST_SYSTEM | LABEL
CC(C)NNC(=O)c1ccncc1 | CP269 | false (0)
OCCN1CCN(CCCN2c3ccccc3C=Cc3ccccc32)CC1 | CP269 | true (1)
CSc1ccc(C(=O)c2[nH]c(=O)[nH]c2C)cc1 | CP269 | false (0)
c1cnc(N2CCN(Cc3ccc4c(c3)OCO4)CC2)nc1 | CP269 | false (0)
CC(C)(C)c1ccc(C(=O)CCCN2CCC(OC(c3ccccc3)c3ccccc3)CC2)cc1 | CP269 | true (1)
C[N+](C)(C)CCOC(=O)CCC(=O)OCC[N+](C)(C)C | CP269 | false (0)
CCCCOCCOCCOCc1cc2c(cc1CCC)OCO2 | CP269 | false (0)
COc1cc(C(=O)OCCCN2CCCN(CCCOC(=O)c3cc(OC)c(OC)c(OC)c3)CC2)cc(OC)c1OC | CP269 | true (1)
NC(=Nc1ccccc1)Nc1ccccc1 | CP269 | false (0)
COC(=O)[C@H]1[C@H]2C[C@@H]3c4[nH]c5cc(OC)ccc5c4CCN3C[C@H]2C[C@@H](OC(=O)c2cc(OC)c(OC)c(OC)c2)[C@@H]1OC | CP269 | true (1)
Nc1ncn([C@@H]2O[C@H](CO)[C@@H](O)[C@H]2O)c(=O)n1 | CP269 | false (0)
NC(Cc1ccc(Cl)cc1)C(=O)O (stereo not drawn) | CP269 | false (0)
NC1=NCC2c3ccccc3Cc3ccccc3N12 (stereo not drawn) | CP269 | false (0)

---

# System: Zika virus NS2B-NS3 protease (unlinked)
# METHOD_NOTES: Optimization of GU AMC qHTS for Zika virus inhibitors: Unlinked NS2B-NS3 protease assay (AID 1347151); also: nearly all actives have a fitted effect of over 80% in size
# EXPERIMENTAL_CONDITIONS: recombinant ZIKV NS2B-NS3 protease, fluorogenic AMC substrate; series mostly up to 52.5 µM
Records with an inconclusive call do not appear. Calls of active or inactive are those of the source. Calls come from the whole dose curve; as a rule, active = well fitted inhibition curve with a large enough effect; inconclusive = small, poorly fitted or top-dose-only effect; inactive = no such curve, though single readings can be large or run the other way.
Possible outcomes: TRUE for active, FALSE for inactive

MOLECULE | LABEL
CC(=O)Nc1nnc(S(N)(=O)=O)s1 | FALSE
C[n+]1cc2c3c(ccc2c2ccc4cc5c(cc4c21)OCO5)OCO3 | TRUE
NC/C=C/C(=O)O | FALSE
Cc1nnc(SCC2=C(C(=O)O)N3C(=O)[C@@H](NC(=O)Cn4cnnn4)[C@H]3SC2)s1 | FALSE
CCO/C([O-])=N/c1c[n+](N2CCOCC2)no1 | FALSE
COc1cc(Cc2cnc(N)nc2N)cc(OC)c1OC | FALSE
COc1ccc(CN(CCN(C)C)c2ccccn2)cc1 | FALSE
CNC1(C)C2CCC(C2)C1(C)C (stereo unspecified) | FALSE
CCn1ccnc1CC1COc2ccccc2O1 (stereo unspecified) | FALSE
CCCN1C[C@H](CSC)C[C@@H]2c3cccc4[nH]cc(c34)C[C@H]21 | FALSE
c1ccc2c(c1)CCCC2C1=NCCN1 (stereo unspecified) | FALSE
C[C@H](CS)C(=O)N1CCC[C@H]1C(=O)O | FALSE
O=C(CCNNC(=O)c1ccncc1)NCc1ccccc1 | FALSE
CC(C)NNC(=O)c1ccncc1 | FALSE
CCN(CC)CCOCCOC(=O)C1(c2ccccc2)CCCC1 | FALSE
COCC(=O)O[C@]1(CCN(C)CCCc2nc3ccccc3[nH]2)CCc2cc(F)ccc2[C@@H]1C(C)C | FALSE
CC(C)(C)c1ccc(C(=O)CCCN2CCC(OC(c3ccccc3)c3ccccc3)CC2)cc1 | FALSE
C=CCc1ccccc1OCC(O)CNC(C)C (stereo unspecified) | FALSE
Cc1nc2c([nH]1)c(=O)n(C)c(=O)n2Cc1ccco1 | FALSE
CN1CCN(CC(=O)N2c3ccccc3C(=O)Nc3cccnc32)CC1 | FALSE
CN(C)CCCN1c2ccccc2Sc2ccccc21 | FALSE

---

# System: DIV30
# METHOD_NOTES: qHTS profiling for inhibitors of Plasmodium falciparum proliferation (AID 504749); also: nearly all actives have a fitted effect of over 60% in size
# EXPERIMENTAL_CONDITIONS: P. falciparum in erythrocytes, SYBR Green DNA, 72 h; series mostly up to 28.7 µM
Inconclusive results are not listed. Activity calls are given as the source filed them. Calls come from the whole dose curve; as a rule, active = well fitted inhibition curve with a large enough effect; inconclusive = small, poorly fitted or top-dose-only effect; inactive = flat fitted curve, though single readings scatter.
Possible outcomes: active, inactive

COMPOUND | LABEL
CCN(Cc1ccncc1)C(=O)C(CO)c1ccccc1 (stereo not drawn) | inactive
CN(C)C(=O)Oc1ccc[n+](C)c1 | inactive
C[N+](C)(C)CCOC(N)=O | inactive
CCn1ccnc1CC1COc2ccccc2O1 (stereo not drawn) | inactive
Nc1nc(N)c2nc(-c3ccccc3)c(N)nc2n1 | inactive
CCOC(=O)C1=C(C)NC(C)=C(C(=O)OC)C1c1cccc(Cl)c1Cl (stereo not drawn) | inactive
CCn1cc(C(=O)O)c(=O)c2cc3c(cc21)OCO3 | inactive
COC(=O)C1=C(C)NC(C)=C(C(=O)OC(C)(C)CN(C)CCC(c2ccccc2)c2ccccc2)C1c1cccc([N+](=O)[O-])c1 (stereo not drawn) | active

---

# System: CP325
# METHOD_NOTES: qHTS profiling for inhibitors of Plasmodium falciparum proliferation (AID 504749); also: nearly all actives have a fitted effect of over 60% in size
# EXPERIMENTAL_CONDITIONS: P. falciparum in erythrocytes, SYBR Green DNA, 72 h; series mostly up to 28.7 µM
Records with an inconclusive call do not appear. The source made the active and inactive calls. Calls follow the shape of the dose curve; as a rule, active = well fitted inhibition curve with a large enough effect; inconclusive = small, poorly fitted or top-dose-only effect; inactive = flat fitted curve, though single readings scatter.
Possible outcomes: true = active, false = inactive

MOLECULE | LABEL
NC(=O)N1c2ccccc2C=Cc2ccccc21 | false
Cc1nc2ccccn2c(=O)c1CCN1CCC(C(=O)c2ccc(F)cc2)CC1 | false
CNC1(C)C2CCC(C2)C1(C)C (stereo not drawn) | false
CCN1CCc2nc(N)oc2CC1 | false
CCN(CC)CCOCCOC(=O)C1(c2ccccc2)CCCC1 | true
CCNC(=O)N1CCN(CCCC(c2ccc(F)cc2)c2ccc(F)cc2)CC1 | true
CSc1ccc(C(=O)c2[nH]c(=O)[nH]c2C)cc1 | false
CN1CCN(C2=Nc3ccccc3Oc3ccc(Cl)cc32)CC1 | false

---

# Tested on: CP305
# METHOD_NOTES: qHTS profiling for inhibitors of Plasmodium falciparum proliferation (AID 504749); also: nearly all actives have a fitted effect of over 60% in size
# EXPERIMENTAL_CONDITIONS: P. falciparum in erythrocytes, SYBR Green DNA, 72 h; series mostly up to 28.7 µM
Records with an inconclusive call do not appear. Activity calls are given as the source filed them. The call rests on the fitted dose curve; in most records, active means well fitted inhibition curve with a large enough effect; inconclusive means small, poorly fitted or top-dose-only effect; inactive means flat fitted curve, though single readings scatter.
Possible outcomes: active, inactive

MOLECULE | LABEL
Brc1c(NC2=NCCN2)ccc2nccnc12 | inactive
CSc1ccc(C(=O)c2[nH]c(=O)[nH]c2C)cc1 | inactive
CN(C)C(=O)Oc1cccc([N+](C)(C)C)c1 | inactive
C[N+](C)(C)CCCCCCCCCC[N+](C)(C)C | active
OCCN1CCN(CC/C=C2/c3ccccc3Sc3ccc(C(F)(F)F)cc32)CC1 | active
CCN1CCC[C@H]1CNC(=O)c1c(O)c(Cl)cc(Cl)c1OC | inactive

---

# Tested on: ATS95
# METHOD_NOTES: qHTS profiling for inhibitors of Plasmodium falciparum proliferation (AID 504749); also: nearly all actives have a fitted effect of over 60% in size
# EXPERIMENTAL_CONDITIONS: P. falciparum in erythrocytes, SYBR Green DNA, 72 h; series mostly up to 28.7 µM
Inconclusive results are not listed. The source made the active and inactive calls. The call rests on the fitted dose curve; in most records, active means well fitted inhibition curve with a large enough effect; inconclusive means small, poorly fitted or top-dose-only effect; inactive means flat fitted curve, though single readings scatter.
Possible outcomes: 1 for active, 0 for inactive

MOLECULE | LABEL
CC(=O)[C@@]1(O)CC[C@H]2[C@@H]3CCC4=CC(=O)CC[C@]4(C)[C@H]3CC[C@@]21C | 0
Cc1ccc(=O)n(-c2ccccc2)c1 | 0
O=c1[nH]c(=O)n([C@H]2C[C@H](O)[C@@H](CO)O2)cc1Br | 0
COC(=O)[C@H]1[C@H]2C[C@@H]3c4[nH]c5cc(OC)ccc5c4CCN3C[C@H]2C[C@@H](OC(=O)c2cc(OC)c(OC)c(OC)c2)[C@@H]1OC | 1
CCCOc1ccccc1-c1nc2n[nH]nc2c(=O)[nH]1 | 0
CC1=NS(=O)(=O)c2cc(Cl)ccc2N1 | 0

---

# Tested on: DIV17
# METHOD_NOTES: qHTS profiling for inhibitors of Plasmodium falciparum proliferation (AID 504749); also: nearly all actives have a fitted effect of over 60% in size; also: potency is read from the fitted curve at half-maximal effect
# EXPERIMENTAL_CONDITIONS: P. falciparum in erythrocytes, SYBR Green DNA, 72 h; series mostly up to 28.7 µM
Results filed as inconclusive are left out. Activity calls are given as the source filed them. The call rests on the fitted dose curve; in most records, active means well fitted inhibition curve with a large enough effect; inconclusive means small, poorly fitted or top-dose-only effect; inactive means flat fitted curve, though single readings scatter.

MOLECULE | Potency
CCNC(=O)N1CCN(CCCC(c2ccc(F)cc2)c2ccc(F)cc2)CC1 | 13.5 µM (active)
COCC(=O)O[C@]1(CCN(C)CCCc2nc3ccccc3[nH]2)CCc2cc(F)ccc2[C@@H]1C(C)C | 0.601 µM (active)
CCCC(C(=O)OCCN(CC)CC)(c1ccccc1)c1ccccc1 | 7.57 µM (active)
O=c1[nH]c(=O)n([C@H]2C[C@H](O)[C@@H](CO)O2)cc1Br | inactive
CN(C)CC[C@@H](c1ccc(Br)cc1)c1ccccn1 | 7.57 µM (active)
CSc1ccc(C(=O)c2[nH]c(=O)[nH]c2C)cc1 | inactive
CNC1(C)C2CCC(C2)C1(C)C (stereo not given) | inactive
NC(=Nc1ccccc1)Nc1ccccc1 | inactive
CN(C)C(=O)Oc1cccc([N+](C)(C)C)c1 | inactive
C[N+](C)(C)CCOC(N)=O | inactive
Nc1nc(N)c2nc(-c3ccccc3)c(N)nc2n1 | inactive
C[C@]12CCC(=O)C=C1CC[C@@H]1[C@@H]2CC[C@@]2(C)[C@H]1CC[C@]2(O)C(=O)CO | inactive
CCCOc1ccccc1-c1nc2n[nH]nc2c(=O)[nH]1 | inactive
CCOC(=O)C1=C(C)NC(C)=C(C(=O)OC)C1c1cccc(Cl)c1Cl (stereo not given) | inactive
C[N+](C)(C)CCOC(=O)CCC(=O)OCC[N+](C)(C)C | inactive
CC(=O)Nc1nnc(S(N)(=O)=O)s1 | inactive
CCc1cccc(N(C)C(N)=Nc2cccc3ccccc23)c1 | 1.35 µM (active)
CCN(CC)CCOCCOC(=O)C1(c2ccccc2)CCCC1 | 3.79 µM (active)
O=C(O)CP(=O)(O)O | inactive
CCCCNC(=O)NS(=O)(=O)c1ccc(C)cc1 | inactive
CN(C)CCN(Cc1cccs1)c1ccccn1 | 6.01 µM (active)
CCCN(CCC)CCc1cccc2c1CC(=O)N2 | inactive
CN=C(NC#N)NCCSCc1nc[nH]c1C | inactive
CN(C)C/C=C(/c1ccc(Br)cc1)c1cccnc1 | inactive
c1cnc(N2CCN(Cc3ccc4c(c3)OCO4)CC2)nc1 | inactive
